# normalized SmoIP GFP fluorescence annotations
# Test system: Drosophila S2 cl14 SmoIP sensor cells
# ASSAY_INFO: normalized SmoIP GFP fluorescence (untreated unstimulated = 0%, untreated Hh-stimulated = 100%); higher = more Smo activation sensor fluorescence
# RUN_CONDITIONS: stimulation: mock conditioned medium (-Hh); compound concentration: 2 uM; 24 h
A number alone suffices; assume %.

Known normalized SmoIP GFP fluorescence results, listed for orientation:
CC1(C)CCC(CN2CCN(c3ccc(C(=O)NS(=O)(=O)c4ccc(NCC5CCOCC5)c([N+](=O)[O-])c4)c(Oc4cnc5[nH]ccc5c4)c3)CC2)=C(c2ccc(Cl)cc2)C1 | -2.82
COc1cc2nccc(Oc3ccc(NC(=O)NC4CC4)c(Cl)c3)c2cc1C(N)=O | 7.92
CN(C)Cc1c(C(=O)NCCOc2ccc(C(=O)NO)cc2)oc2ccccc12 | 35.2

Would you mind telling me what normalized SmoIP GFP fluorescence value was observed for CS(=O)(=O)CCNCc1ccc(-c2ccc3ncnc(Nc4ccc(OCc5cccc(F)c5)c(Cl)c4)c3c2)o1 [Lapatinib-Ditosylate] ?
9

Try this compound next: COc1cc2c(cc1OC)CN(CCc1ccc(NC(=O)c3cc(OC)c(OC)cc3NC(=O)c3cnc4ccccc4c3)cc1)CC2
2.77

---

# normalized SmoIP GFP fluorescence annotations
# Tested on: Drosophila S2 cl14 SmoIP sensor cells
# ASSAY_INFO: normalized SmoIP GFP fluorescence (untreated unstimulated = 0%, untreated Hh-stimulated = 100%); higher = more Smo activation sensor fluorescence
# RUN_CONDITIONS: stimulation: mock conditioned medium (-Hh); compound concentration: 2 uM; 24 h
Where a name gives a salt, the structure may show the parent alone.
A number alone suffices; assume %.

COc1cc(-c2ncn(/C=C\C(=O)OC(C)C)n2)cc(C(F)(F)F)c1 | -0.889
O=S(=O)(c1cccc2cnccc12)N1CCCNCC1 [Fasudil-HCl(HA-1077)] | -3.93
CN(C)CCC=C1c2ccccc2CCc2ccccc21 [amitriptyline-hydrochloride] | -3.27

Would you mind telling me what normalized SmoIP GFP fluorescence value was observed for CCN1CCN(c2ccc(Nc3cc(N(C)C(=O)Nc4c(Cl)c(OC)cc(OC)c4Cl)ncn3)cc2)CC1 ?
-12.7

Try this molecule next: O=C(/C=C/c1ccc(O)c(O)c1)OCCc1ccccc1 [caffeic-acid-phenethyl-ester]
71.8

Try this molecule next: Cc1cc(NC(=O)Nc2ccc(N(C)C)cc2)c2cc(F)cc(F)c2n1
24.9

---

# normalized SmoIP GFP fluorescence annotations
# System: Drosophila S2 cl14 SmoIP sensor cells
# ASSAY_INFO: normalized SmoIP GFP fluorescence (untreated unstimulated = 0%, untreated Hh-stimulated = 100%); higher = more Smo activation sensor fluorescence
# RUN_CONDITIONS: stimulation: mock conditioned medium (-Hh); compound concentration: 2 uM; 24 h
Counter-ions that a name gives are not always drawn.
A number alone suffices; assume %.

Known normalized SmoIP GFP fluorescence results, listed for orientation:
CN1CCN(c2ccc3nc(-c4c(N)c5c(F)cccc5[nH]c4=O)[nH]c3c2)CC1 [dovitinib] | 72.9
Cc1cn(-c2cc(NC(=O)c3ccc(C)c(Nc4nccc(-c5cccnc5)n4)c3)cc(C(F)(F)F)c2)cn1 [Nilotinib] | -4.47
CO[C@H]1C[C@@H]2CC[C@@H](C)[C@@](O)(O2)C(=O)C(=O)N2CCCC[C@H]2C(=O)O[C@H]([C@H](C)C[C@@H]2CC[C@@H](OCCO)[C@H](OC)C2)CC(=O)[C@H](C)/C=C(\C)[C@@H](O)[C@@H](OC)C(=O)[C@H](C)C[C@H](C)/C=C/C=C/C=C/1C [Everolimus(RAD001)] | -10.1
O=C(c1ccc(F)cc1)N1CCC[C@H](c2nc(-c3ccc(F)cc3)no2)C1 | -7.78
Cn1cnc(N)c2ncnc1-2 [3-methyladenine] | -4.89
Cc1cccc(-c2nn3c(c2-c2ccnc4ccc(C(N)=O)cc24)CCC3)n1 | -15.4

Would you mind telling me what normalized SmoIP GFP fluorescence value was observed for Cc1cc(C(C)(C)C)c(O)c(C)c1CC1=NCCN1 [Oxymetazoline-hydrochloride] ?
-3.5

Try this molecule next: COC(=O)N1CCN(Cc2cccc(NC(=O)Nc3ccc(C)nc3)c2F)CC1
-11.4

---

# System: Drosophila S2 cl14 SmoIP sensor cells
# ASSAY_INFO: normalized SmoIP GFP fluorescence (untreated unstimulated = 0%, untreated Hh-stimulated = 100%); higher = more Smo activation sensor fluorescence
# RUN_CONDITIONS: stimulation: mock conditioned medium (-Hh); compound concentration: 2 uM; 24 h
VALUE_KIND: normalized SmoIP GFP fluorescence (%)
A number alone suffices; assume %.

Known normalized SmoIP GFP fluorescence results, listed for orientation:
CC(C)n1nc(-c2ccc3oc(N)nc3c2)c2c(N)ncnc21 | -0.889
CC(C)(C)Cn1c(N)nc2ccc(-c3[nH]c(C(C)(C)C)nc3-c3ccc(F)cc3)nc21 | 1.35
COc1cccc(-c2cc(=O)c3ccccc3o2)c1N | 2.64
CN(C)CCC(c1ccc(Br)cc1)c1ccccn1 (stereo not given) | -5.17

API: the following record is the query input.
I'm curious: which normalized SmoIP GFP fluorescence was measured for C#CCN[C@@H]1CCc2ccccc21 [rasagiline-mesylate] tested on Drosophila S2 cl14 SmoIP sensor cells?
-13.4

---

# System: Drosophila S2 cl14 SmoIP sensor cells
# ASSAY_INFO: normalized SmoIP GFP fluorescence (untreated unstimulated = 0%, untreated Hh-stimulated = 100%); higher = more Smo activation sensor fluorescence
# RUN_CONDITIONS: stimulation: mock conditioned medium (-Hh); compound concentration: 2 uM; 24 h
Counter-ions that a name gives are not always drawn.
VALUE_KIND: normalized SmoIP GFP fluorescence (%)
A number alone suffices; assume %.

COc1cc2ncnc(Oc3cccc(NC(=O)Nc4cc(C(C)(C)C(F)(F)F)on4)c3)c2cc1OC | -13.4
C=CC(=O)Nc1cccc(Nc2nc(Nc3ccc(N4CCN(C(C)=O)CC4)cc3OC)ncc2C(F)(F)F)c1 | 44
CS(=O)(=O)Nc1ccc([N+](=O)[O-])cc1Oc1ccccc1 [nimesulide] | -4.35
COc1cc(Nc2c(C#N)cnc3cc(OCCCN4CCN(C)CC4)c(OC)cc23)c(Cl)cc1Cl | 9.08
O=C1NC(=O)/C(=C/c2ccc3nccc(-c4ccncc4)c3c2)S1 | 2.43

Would you mind telling me what normalized SmoIP GFP fluorescence value was observed for CC(C)[C@H](C(=O)Nc1ccc(C(=O)NO)cc1)c1ccccc1 ?
60.6

Try this compound next: CC1C(=O)OC2C(O)C34C5CC(C(C)(C)C)C36C(OC(=O)C6O)OC4(C(=O)O5)C12O (configuration not stated) [Ginkgolide-B]
0.489

Try this compound next: CN1CCC[C@@H]1Cc1c[nH]c2ccc(CCS(=O)(=O)c3ccccc3)cc12 [eletriptan-hydrobromide]
-2.71

---

# normalized SmoIP GFP fluorescence annotations
# System: Drosophila S2 cl14 SmoIP sensor cells;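 also: flow cytometry read-out as median GFP intensity of gated cells, compounds added 30 min before Hh-conditioned or mock medium, mock-treated cells serving as unstimulated baseline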
# ASSAY_INFO: normalized SmoIP GFP fluorescence (untreated unstimulated = 0%, untreated Hh-stimulated = 100%); higher = more Smo activation sensor fluorescence
# RUN_CONDITIONS: stimulation: mock conditioned medium (-Hh); compound concentration: 2 uM; 24 h
Structures can show the parent of a compound that is named as a salt.
A number alone suffices; assume %.

Known normalized SmoIP GFP fluorescence results, listed for orientation:
Fc1ccc([C@@H]2CCNC[C@H]2COc2ccc3c(c2)OCO3)cc1 [paroxetine-hcl] | 0.588
CCc1cc2c(cc1N1CCC(N3CCOCC3)CC1)C(C)(C)c1[nH]c3cc(C#N)ccc3c1C2=O | 8.36
C[C@H](Nc1ncnc2nc[nH]c12)c1cc2cccc(Cl)c2c(=O)n1-c1ccccc1 | -4.24
O=C1c2ccc(Nc3ccc(F)cc3F)cc2CCc2ccc(OC[C@H](O)CO)cc21 [skepinone-l] | -4.13

Would you mind telling me what normalized SmoIP GFP fluorescence value was observed for N#CC[C@H](C1CCCC1)n1cc(-c2ncnc3[nH]ccc23)cn1 ?
1.03

Try this compound next: C[C@H](Cc1cc2c(c(C(N)=O)c1)N(CCCO)CC2)NCCOc1ccccc1OCC(F)(F)F [Silodosin(Rapaflo)]
-7.81

Try this compound next: O=C(NC[C@H]1CN(c2ccc(N3CCOCC3=O)cc2)C(=O)O1)c1ccc(Cl)s1 [Rivaroxaban]
-1.34

Try this compound next: Cc1cnc(NC(=O)Nc2cc(Br)c(C)cc2OC[C@@H]2CNCCO2)cn1
-14.5

Try this compound next: COC(=O)C1=C(C)NC(C)=C(C(=O)OCCN2CCN(C(c3ccccc3)c3ccccc3)CC2)C1c1cccc([N+](=O)[O-])c1 (stereo not given) [Manidipine(Manyper)]
3.85

Try this compound next: COc1ccccc1Oc1c(NS(=O)(=O)c2ccc(C(C)(C)C)cc2)nc(-c2ncccn2)nc1OCCO [bosentan-hydrate]
-1.63

Try this compound next: Cc1cccc(-c2[nH]c(C(C)(C)C)nc2-c2ccc3nccnc3c2)n1
-5.22

Try this compound next: OC[C@H]1O[C@@H](c2ccc(Cl)c(Cc3ccc(O[C@H]4CCOC4)cc3)c2)[C@H](O)[C@@H](O)[C@@H]1O
-7.78

Try this compound next: Nc1nc(CC(=O)Nc2ccc(CCNC[C@H](O)c3ccccc3)cc2)cs1 [mirabegron-ym178]
-5.15

Try this compound next: OC(CN1CCN(c2cccc(Cl)c2)CC1)C(c1ccccc1)c1ccccc1 (stereo not given)
-4.89

Try this compound next: Cn1cc(CNCC2CCN(c3ncc(C(=O)NO)cn3)CC2)c2ccccc21
60.6

Try this compound next: O=C(O)Cn1nnc(-c2cc(N3CCC(Oc4cc(F)ccc4Br)CC3)no2)n1
13.3

Try this compound next: Nc1ncnc2n[nH]c(Nc3ccc(F)cc3)c12
2.64
